Source listed as ChEMBL document CHEMBL5442175.

Target: 5-hydroxytryptamine receptor 2B (Homo sapiens)
Sequence (P41595 whole entry): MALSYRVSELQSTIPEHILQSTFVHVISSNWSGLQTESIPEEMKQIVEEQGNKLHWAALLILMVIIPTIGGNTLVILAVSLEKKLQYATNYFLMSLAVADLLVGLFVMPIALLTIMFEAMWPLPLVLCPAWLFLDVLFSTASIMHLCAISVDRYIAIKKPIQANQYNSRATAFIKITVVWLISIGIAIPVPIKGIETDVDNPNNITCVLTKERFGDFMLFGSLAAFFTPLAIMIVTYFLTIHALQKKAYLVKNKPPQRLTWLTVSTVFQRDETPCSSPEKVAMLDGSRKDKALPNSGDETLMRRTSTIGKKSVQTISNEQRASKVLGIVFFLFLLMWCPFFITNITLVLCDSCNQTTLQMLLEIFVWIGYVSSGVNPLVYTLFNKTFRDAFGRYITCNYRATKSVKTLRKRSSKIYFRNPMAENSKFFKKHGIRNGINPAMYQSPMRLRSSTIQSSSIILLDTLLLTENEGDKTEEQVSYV
pKi: −log10 of the molar value. Structures can show the parent of a compound that is named as a salt.
Each entry below lists one item and its recorded pKi value.
ATTRIBUTE MEASURED: pKi

MOLECULE	VALUE OBSERVED
N#Cc1ccc2[nH]cc(CCCCN3CCN(c4ccc5oc(C(N)=O)cc5c4)CC3)c2c1 [VILAZODONE HYDROCHLORIDE]	7.19
COc1cccc([C@@H](C)NCCCc2ccccc2Cl)c1 [TECALCET HYDROCHLORIDE]	7.37
CCOC(=O)c1c(C)[nH]c2ccc3c(c12)CN1CCc2cc(OC)ccc2C1O3 (centres undefined)	6.30
Nc1nc2c(c(N3CCNCC3)n1)CCC1=C2[C@@H]2CCCC[C@@H]2O1	6.55
CN(C)C(=O)C(CCN1CCC(O)(c2ccc(Cl)cc2)CC1)(c1ccccc1)c1ccccc1 [LOPERAMIDE HYDROCHLORIDE]	6.44
CCCCN1CCC(COC(=O)c2cc(Cl)c(N)c3c2OCCO3)CC1	7.28
N#Cc1c[nH]c2c(C(=O)N3CCN(CCc4ccc(F)cc4)CC3)cccc12	5.98
C[C@@H](NCCCc1cccc(C(F)(F)F)c1)c1cccc2ccccc12 [CINACALCET HYDROCHLORIDE]	7.40
CCc1ccc(OCc2ccccc2C(=O)Nc2ccc3nc(C)cc(N)c3c2)cc1	6.64
